Target: T1, GST-tagged MtbXthA (M. tuberculosis, UniProt P96273 1-291)
T1 sequence: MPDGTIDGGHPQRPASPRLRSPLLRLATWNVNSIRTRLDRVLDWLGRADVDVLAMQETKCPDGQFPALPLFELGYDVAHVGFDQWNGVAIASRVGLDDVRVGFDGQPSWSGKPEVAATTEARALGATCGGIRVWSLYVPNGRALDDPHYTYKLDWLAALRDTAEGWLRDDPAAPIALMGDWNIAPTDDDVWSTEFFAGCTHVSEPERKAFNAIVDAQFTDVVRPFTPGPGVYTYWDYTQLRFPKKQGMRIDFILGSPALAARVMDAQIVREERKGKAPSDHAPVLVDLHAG
Experiment: SPR
property: Kd (nM)

- BRCT domain of MtbLigA, His-tagged (domain or fragment) SVPRTLAGLTIVVTGSLTGFSRDDAKEAIVARGGKAAGSVSKKTNYVVAGDSPGSKYDKAVELGVPILDEDGFRRLLADGPASRT: 71.4
